Quick reference for peptide exchange yield among some binders
MEASURED ON: T1, HLA-A*02:01 (human)
T1 construct: the tested peptide takes its place; also called peptide-receptive MHC molecules; MHC class I
EXPERIMENT DESCRIPTION: UV-ligand exchange, anti-β2m ELISA; grade of peptide exchange yield

>  <BINDER>
LLLAAARLAAA [LLLAAARLAAA (SEQ ID NO: 111)]

>  <peptide exchange yield>
50 to 75%

$$$$
>  <BINDER>
SLYTALTEA [SLYTALTEA (SEQ ID NO: 26)]

>  <peptide exchange yield>
50 to 75%

$$$$
>  <BINDER>
LLPGTEYVVSV [LLPGTEYVVSV (SEQ ID NO: 80)]

>  <peptide exchange yield>
50 to 75%

$$$$
>  <BINDER>
FLFGEEPSKL [FLFGEEPSKL (SEQ ID NO: 130)]

>  <peptide exchange yield>
50 to 75%

$$$$
>  <BINDER>
GLIDYDTGIRL [GLIDYDTGIRL (SEQ ID NO: 17)]

>  <peptide exchange yield>
50 to 75%

$$$$
>  <BINDER>
YILPFSEVL [YILPFSEVL (SEQ ID NO: 29)]

>  <peptide exchange yield>
≥ 75%

$$$$
>  <BINDER>
GLIDIENPNRV [GLIDIENPNRV (SEQ ID NO: 20)]

>  <peptide exchange yield>
50 to 75%

$$$$
>  <BINDER>
VLFSGSLRL [VLFSGSLRL (SEQ ID NO: 69)]

>  <peptide exchange yield>
50 to 75%

$$$$
